target: Human EGF receptor tyrosine kinase (Homo sapiens, UniProt P00533); construct: isolated from A431 human epidermoid carcinoma cells which overexpress EGF receptor; endogenous in cells; host or cells: A431 human epidermoid carcinoma cells; purified from the lysate on wheat germ agglutinin sepharose; test: EGF receptor tyrosine kinase inhibition (phosphorylation of PLC-gamma 1 derived peptide); type: biochemical; conditions: Table 1, values printed in μM; read-out: EGF Receptor Tyrosine Kinase Inhibition IC50
Sequence (P00533 25-1210): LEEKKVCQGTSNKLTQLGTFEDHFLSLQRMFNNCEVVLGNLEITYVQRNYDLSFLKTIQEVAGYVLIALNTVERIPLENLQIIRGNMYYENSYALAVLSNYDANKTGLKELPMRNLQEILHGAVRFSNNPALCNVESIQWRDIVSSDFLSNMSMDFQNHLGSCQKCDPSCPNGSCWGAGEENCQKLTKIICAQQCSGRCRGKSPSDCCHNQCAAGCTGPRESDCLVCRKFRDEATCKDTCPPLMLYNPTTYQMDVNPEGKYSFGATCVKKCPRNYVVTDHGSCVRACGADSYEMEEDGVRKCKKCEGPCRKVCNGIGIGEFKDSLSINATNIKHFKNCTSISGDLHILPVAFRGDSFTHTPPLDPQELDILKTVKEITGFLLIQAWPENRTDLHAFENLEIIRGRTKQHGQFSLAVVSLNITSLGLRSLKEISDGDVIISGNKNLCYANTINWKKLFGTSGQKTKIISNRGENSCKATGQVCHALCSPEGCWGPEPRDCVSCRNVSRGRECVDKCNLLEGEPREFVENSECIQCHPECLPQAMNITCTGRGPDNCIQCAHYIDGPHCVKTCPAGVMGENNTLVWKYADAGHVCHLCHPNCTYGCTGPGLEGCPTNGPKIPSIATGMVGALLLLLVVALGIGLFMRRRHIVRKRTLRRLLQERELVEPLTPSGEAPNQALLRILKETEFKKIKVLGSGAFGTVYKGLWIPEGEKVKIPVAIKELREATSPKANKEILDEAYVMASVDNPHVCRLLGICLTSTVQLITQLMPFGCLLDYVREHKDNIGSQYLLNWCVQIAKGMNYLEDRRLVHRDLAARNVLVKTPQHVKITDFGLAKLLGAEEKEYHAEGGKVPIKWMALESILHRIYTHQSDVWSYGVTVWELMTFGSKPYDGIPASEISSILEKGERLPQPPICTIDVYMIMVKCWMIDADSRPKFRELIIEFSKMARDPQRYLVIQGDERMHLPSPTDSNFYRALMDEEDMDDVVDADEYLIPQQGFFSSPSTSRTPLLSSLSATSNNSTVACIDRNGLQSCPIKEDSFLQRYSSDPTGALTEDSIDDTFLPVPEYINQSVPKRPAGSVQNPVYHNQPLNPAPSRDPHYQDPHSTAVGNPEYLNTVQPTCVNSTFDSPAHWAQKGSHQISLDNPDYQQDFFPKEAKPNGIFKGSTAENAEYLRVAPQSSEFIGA
Structures can show the parent of a compound that is named as a salt.
The entries below are paired with their reported IC50.
// units = µM; emit number, no label

Use the examples below as a reference point.
INSERT INTO measurements (molecule, targetentity, measuredendpoint, numericvalue) VALUES
  ('Nc1cc2ncnc(NCc3cccc([N+](=O)[O-])c3)c2cn1', 'Human EGF receptor tyrosine kinase (Homo sapiens, UniProt P00533)', 'IC50', 10),
  ('Nc1cc2ncnc(NCc3ccc(Cl)cc3)c2cn1 [Example 46, Mesylate]', 'Human EGF receptor tyrosine kinase (Homo sapiens, UniProt P00533)', 'IC50', 1.42),
  ('CN(C)c1cccc(CNc2ncnc3cc(N)ncc23)c1', 'Human EGF receptor tyrosine kinase (Homo sapiens, UniProt P00533)', 'IC50', 10),
  ('c1ccc(Nc2ncnc3ccncc23)cc1 [Example 10, 4-Anilinopyrido[4,3-d]pyrimidine]', 'Human EGF receptor tyrosine kinase (Homo sapiens, UniProt P00533)', 'IC50', 6.1),
  ('Nc1cc2ncnc(NCc3ccc(C(F)(F)F)cc3)c2cn1', 'Human EGF receptor tyrosine kinase (Homo sapiens, UniProt P00533)', 'IC50', 8),
  ('CNc1ncc2c(NCc3ccccc3)ncnc2n1', 'Human EGF receptor tyrosine kinase (Homo sapiens, UniProt P00533)', 'IC50', 7),
  ('Clc1ccc2ncnc(Nc3cccc(Br)c3)c2n1', 'Human EGF receptor tyrosine kinase (Homo sapiens, UniProt P00533)', 'IC50', 1.9),
  ('Nc1cc2ncnc(NCc3ccc(Br)cc3)c2cn1', 'Human EGF receptor tyrosine kinase (Homo sapiens, UniProt P00533)', 'IC50', 2.5),
  ('Nc1cc2ncnc(Nc3ccccc3C(F)(F)F)c2cn1', 'Human EGF receptor tyrosine kinase (Homo sapiens, UniProt P00533)', 'IC50', 10),
  ('Nc1cc2ncnc(NCc3cccc(Br)c3)c2cn1', 'Human EGF receptor tyrosine kinase (Homo sapiens, UniProt P00533)', 'IC50', 1);

Then this molecule:
Param readout = IC50; param system = Human EGF receptor tyrosine kinase (Homo sapiens, UniProt P00533); param query = c1ccc(CNc2ncnc3nc[nH]c23)cc1 ; response: value 10

====

The entries below are paired with their reported IC50.
target: Human EGF receptor tyrosine kinase (Homo sapiens); construct: isolated from A431 human epidermoid carcinoma cells which overexpress EGF receptor; endogenous in cells; host or cells: A431 human epidermoid carcinoma cells; purified from the lysate on wheat germ agglutinin sepharose; assay: EGF receptor tyrosine kinase inhibition (phosphorylation of PLC-gamma 1 derived peptide); format: biochemical; details: Table 1, values in nM; read-out: EGF Receptor Tyrosine Kinase Inhibition IC50
// units = nM; emit number, no label

Use the examples below as a reference point.
INSERT INTO results (structuresmiles, readoutunits, numericvalue) VALUES
  ('Clc1cc2c(Nc3cccc(Br)c3)ncnc2cn1', 'nM', 40),
  ('Nc1cc2ncnc(Nc3cccc([N+](=O)[O-])c3)c2cn1', 'nM', 39);

Then this compound:
Recorded IC50 of COc1cc2ncnc(Nc3cccc(Br)c3)c2cn1 , please. 39
